Origin of the recorded values: PubChem BioAssay (NCI)

- EXPERIMENT_DESCRIPTION: NCI Yeast Anticancer Drug Screen. Data for the rad50 strain (AID 155);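 note: 0% = growth of vehicle-only cultures of the same strain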
- APPLIED_CONDITIONS: S. cerevisiae rad50 strain growth inhibition; at 50.0 µM; active compounds read high
- Method: Growth inhibition of yeast strains with defined genetic alterations is measured as a screen for potential anti-cancer activity. Selected strains with alterations in DNA damage repair or cell cycle control were exposed to compounds and growth inhibition was measured relative to vehicle treated controls. The strain used in this assay is rad50
About 79,000 compounds went through this panel and 15% of them were active in at least one assay; those are over-represented in the sample as a whole. Active and inactive are the calls of the source. Cut-off read from the data, not from the text of the source: active = growth inhibition above about 70%; inactive = the rest.
Below, each entry is listed with its recorded growth inhibition.

Take a look at these entries with their results.
[
  {
    "MOLECULE": "CCN(CC)CCOC(=O)CCC(C)=O",
    "growth inhibition": "6.35% (inactive)"
  },
  {
    "MOLECULE": "O=N[O-].O=N[O-].[Co].[NH-]CC[N-]CC[N-]CC[NH-]",
    "growth inhibition": "10.4% (inactive)"
  },
  {
    "MOLECULE": "C=COC(=O)c1ccccc1O",
    "growth inhibition": "-32.7% (inactive)"
  }
]

QUERY: Return the recorded growth inhibition value; entry: C1=C/CCC2OC2CC/C=C/CC/1 (stereo unspecified)
RESULT: -9.8% (inactive)

QUERY: Return the recorded growth inhibition value; entry: CCC(C)(O)C#CC#CC(C)(O)CC (stereo unspecified)
RESULT: 17.2% (inactive)

QUERY: Return the recorded growth inhibition value; entry: CC(C)CCCC(C)C1CCC2C3CC=C4CC(OC5CCC6(C)C(=CCC7C6CCC6(C)C(C(C)CCCC(C)C)CCC76)C5)CCC4(C)C3CCC12C (stereo unspecified)
RESULT: -0.05% (inactive)

QUERY: Return the recorded growth inhibition value; entry: Cc1cn(C2OC3COC2C3O)c(=O)[nH]c1=O (stereo unspecified)
RESULT: -20.8% (inactive)

QUERY: Return the recorded growth inhibition value; entry: O=C(OCC(OC(=O)c1ccccc1)C(OC(=O)c1ccccc1)C(COC(=O)c1ccccc1)OC(=O)c1ccccc1)c1ccccc1 (stereo unspecified)
RESULT: 67% (inactive)

QUERY: Return the recorded growth inhibition value; entry: `CC(C)CCN(C=O)c1ccccc1`
RESULT: 1.7% (inactive)

QUERY: Return the recorded growth inhibition value; entry: `CNc1ccccc1C(=O)N/N=C\c1ccc(Cl)cc1Cl`
RESULT: -7.75% (inactive)

QUERY: Return the recorded growth inhibition value; entry: `c1ccc2c(c1)CCCN2c1ncnc2ccccc12`
RESULT: -10.2% (inactive)

====

- EXPERIMENT_DESCRIPTION: NCI Yeast Anticancer Drug Screen. Data for the mec2-1 strain (AID 157)
- APPLIED_CONDITIONS: S. cerevisiae mec2-1 strain, at 50.0 µM, active compounds read high
The panel holds about 79,000 compounds, 15% with a hit somewhere; the sample as a whole holds those more often. Active and inactive are the calls of the source. Rule as the data show it: active = growth inhibition above about 70%; inactive = the rest.
Below, each entry is listed with its recorded growth inhibition.

[
  {
    "MOLECULE": "Cc1cc2c(=O)cc(-c3ccc(C(=O)O)cc3)oc2c(C(=O)O)c1C",
    "VALUE_OBSERVED": "4.3% (inactive)"
  },
  {
    "MOLECULE": "CC(C)c1cccc(C(C)C)c1NC(=O)/C(Cc1nc2ccc(Cl)cc2[nH]c1=O)=N\\NC(=O)C[N+](C)(C)C",
    "VALUE_OBSERVED": "16.2% (inactive)"
  },
  {
    "MOLECULE": "CC12CC3CC(C)(C1)CC(CN=C(N)CS)(C3)C2",
    "VALUE_OBSERVED": "99.5% (active)"
  },
  {
    "MOLECULE": "CC(=O)On1c(-c2ccccc2-c2nc3ccccc3n2OC(C)=O)nc2ccccc21",
    "VALUE_OBSERVED": "14.4% (inactive)"
  },
  {
    "MOLECULE": "O=C(O)/C(=N\\O)c1cnnn1-c1ccccc1",
    "VALUE_OBSERVED": "11.9% (inactive)"
  },
  {
    "MOLECULE": "CCOC(=O)NN(C(=O)OCC)C(=C(c1ccccc1)N1CCOCC1)N(NC(=O)OCC)C(=O)OCC",
    "VALUE_OBSERVED": "5.6% (inactive)"
  },
  {
    "MOLECULE": "CCCc1ncc(C[n+]2ccccc2C)c(N)n1",
    "VALUE_OBSERVED": "-15.1% (inactive)"
  },
  {
    "MOLECULE": "CCC(C)C(=O)/C=C/c1ccccc1 (configuration not stated)",
    "VALUE_OBSERVED": "-6.15% (inactive)"
  }
]

QUERY: Return the recorded growth inhibition value; entry: CC(=O)C(C(c1ccccc1)N1CCOCC1)N1CCOCC1 (configuration not stated)
RESULT: -0.8% (inactive)

QUERY: Return the recorded growth inhibition value; entry: `C[n+]1ccc(NN)cc1`
RESULT: -15.8% (inactive)

QUERY: Return the recorded growth inhibition value; entry: CC(C)CCCC(C)C1CCC2(C)C3CCC(C(C)O)C(C)(CCCO)C3CCC12C (configuration not stated)
RESULT: 27.4% (inactive)

QUERY: Return the recorded growth inhibition value; entry: `CC(C)(C)c1ccc(S(=O)(=O)/C=C/c2ccccc2)cc1`
RESULT: 35% (inactive)

====

Below, each entry is listed with its recorded growth inhibition.
- EXPERIMENT_DESCRIPTION: NCI Yeast Anticancer Drug Screen. Data for the rad50 strain (AID 155);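 note: 0% = growth of vehicle-only cultures of the same strain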
- APPLIED_CONDITIONS: S. cerevisiae rad50 strain growth inhibition; at 50.0 µM; active compounds read high
Compounds without any hit were thinned out: in the full panel of roughly 79,000, 15% have a hit.
Please respond with the number in % and leave the unit unwritten.

Take a look at these entries with their results.
[
  {
    "COMPOUND": "C=C1C(=O)O[C@@H]2[C@@H]3[C@@H](C)C(=O)C=C[C@]3(C)CC[C@@H]12",
    "UNIT_OF_MEASURE": "%",
    "growth inhibition": -15.9
  },
  {
    "COMPOUND": "CSC1=N/C(=C\\c2ccc(C)cc2)C(=O)N1",
    "UNIT_OF_MEASURE": "%",
    "growth inhibition": -35.5
  },
  {
    "COMPOUND": "Cc1nc2c(c(-c3ccccc3)n1)Cc1ccccc1O2",
    "UNIT_OF_MEASURE": "%",
    "growth inhibition": -4.05
  },
  {
    "COMPOUND": "CSc1ccc(NC(=O)COc2ccccc2)cc1",
    "UNIT_OF_MEASURE": "%",
    "growth inhibition": 9.75
  }
]

QUERY: Return the recorded growth inhibition value; entry: COC(=O)C1(CCC(C)=O)CCC(C)C1=O (configuration not stated)
RESULT: 2.55

QUERY: Return the recorded growth inhibition value; entry: `C=C(CN(C)C)C(=O)c1ccc(OC)cc1`
RESULT: 7.75

QUERY: Return the recorded growth inhibition value; entry: NC(=O)C1CC(O)CC(C(N)=O)O1 (configuration not stated)
RESULT: -6.75

====

- EXPERIMENT_DESCRIPTION: NCI Yeast Anticancer Drug Screen. Data for the rad50 strain (AID 155);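 note: 0% = growth of vehicle-only cultures of the same strain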
- APPLIED_CONDITIONS: S. cerevisiae rad50 strain growth inhibition; at 50.0 µM; active compounds read high
The panel holds about 79,000 compounds, 15% with a hit somewhere; the sample as a whole holds those more often.
Below, each entry is listed with its recorded growth inhibition.
Please respond with the number in % and leave the unit unwritten.

Take a look at these entries with their results.
[
  {
    "COMPOUND": "COc1ccc(C2=Nn3c(nc4sc(-c5ccccc5)cc4c3=O)SC2)cc1",
    "UNIT_OF_MEASURE": "%",
    "growth inhibition": -16.9
  },
  {
    "COMPOUND": "CCCCCCCCCCCCCCCCCCCCCCCCCCCCCCCCCCCCSC(=N)N",
    "UNIT_OF_MEASURE": "%",
    "growth inhibition": 8.25
  },
  {
    "COMPOUND": "O=C1CSCN1N1CSCC1=O",
    "UNIT_OF_MEASURE": "%",
    "growth inhibition": -5.85
  }
]

QUERY: Return the recorded growth inhibition value; entry: CC1CC(C2=CC=CCS2)=Nc2ccccc2S1 (centres undefined)
RESULT: -8.25

QUERY: Return the recorded growth inhibition value; entry: `CC(C)OC(=O)C(=O)Nc1cccc(Cl)c1`
RESULT: -3.45

QUERY: Return the recorded growth inhibition value; entry: Cc1nnc(-c2cn(C3OC(CO)C(O)C3O)c3ncnc(N)c23)nc1C (centres undefined)
RESULT: 6.2
